Test system: Principal Bile Acids in Jejunum
Experiment: Bile acid composition of jejunum after oral administration (GC-MS)
Type: in vivo, Sprague-Dawley rats
Settings: oral gavage 250 mg/day, 4 days; mean ± SEM
Listed compounds paired with reported Deoxycholic acid percent of jejunal bile acids
I only need the number, in %, no unit after it.

compound	subject of test	readout value
C[C@H](CCC(=O)O)[C@H]1CC[C@H]2[C@@H]3[C@@H](O)C[C@@H]4C[C@H](O)CC[C@]4(C)[C@H]3CC[C@]12C [UDCA, reference compound]	Principal Bile Acids in Jejunum	5.6
C[C@H](CCC(=O)O)[C@H]1CC[C@H]2[C@@H]3[C@@H](OS(=O)(=O)O)C[C@@H]4C[C@H](OS(=O)(=O)O)CC[C@]4(C)[C@H]3CC[C@]12C [UDCA-DS, ursodeoxycholic acid 3,7-disulfate]	Principal Bile Acids in Jejunum	5.2
C[C@H](CCC(=O)O)[C@H]1CC[C@H]2[C@@H]3[C@@H](OS(=O)(=O)O)C[C@@H]4C[C@H](O)CC[C@]4(C)[C@H]3CC[C@]12C [UDCA-7S, ursodeoxycholic acid 7-sulfate]	Principal Bile Acids in Jejunum	3.3

Respond only with Deoxycholic acid percent of jejunal bile acids recorded for C[C@H](CCC(=O)O)[C@H]1CC[C@H]2[C@@H]3[C@@H](O)C[C@@H]4C[C@H](OS(=O)(=O)O)CC[C@]4(C)[C@H]3CC[C@]12C [UDCA-3S, ursodeoxycholic acid 3-sulfate]
8.4

* * *

Test system: Principal Bile Acids in Colon
Assay: Bile acid composition of colon after oral administration (GC-MS)
Type: in vivo, Sprague-Dawley rats
Settings: oral gavage 250 mg/day, 4 days; mean ± SEM
Experimental: Male Sprague-Dawley rats (Harlan Sprague-Dawley, Inc., Indianapolis, Ind.), weighing 210-290 g, were maintained on a 12-hour light-dark cycle and fed standard laboratory chow ad libitum for 3 days. The animals were then transferred to metabolic cages in which they were housed individually and fed the same diet. UDCA, UDCA 3-sulfate, UDCA 7-sulfate, and UDCA 3,7-disulfate were administered by gavage at a dose of 250 mg/day for 4 consecutive days. […] Body weights of the animals were measured each day. […]
outcome measure: UDCA percent of colonic bile acids (%)
I only need the number, in %, no unit after it.

Completed entries (count: 2):
compound	unit annotation	readout value
C[C@H](CCC(=O)O)[C@H]1CC[C@H]2[C@@H]3[C@@H](OS(=O)(=O)O)C[C@@H]4C[C@H](OS(=O)(=O)O)CC[C@]4(C)[C@H]3CC[C@]12C [UDCA-DS, ursodeoxycholic acid 3,7-disulfate]	%	14.7
C[C@H](CCC(=O)O)[C@H]1CC[C@H]2[C@@H]3[C@@H](O)C[C@@H]4C[C@H](O)CC[C@]4(C)[C@H]3CC[C@]12C [UDCA, reference compound]	%	8.3

Report value only: UDCA percent of colonic bile acids, Principal Bile Acids in Colon, C[C@H](CCC(=O)O)[C@H]1CC[C@H]2[C@@H]3[C@@H](O)C[C@@H]4C[C@H](OS(=O)(=O)O)CC[C@]4(C)[C@H]3CC[C@]12C [UDCA-3S, ursodeoxycholic acid 3-sulfate]
1.5

Report value only: UDCA percent of colonic bile acids, Principal Bile Acids in Colon, C[C@H](CCC(=O)O)[C@H]1CC[C@H]2[C@@H]3[C@@H](OS(=O)(=O)O)C[C@@H]4C[C@H](O)CC[C@]4(C)[C@H]3CC[C@]12C [UDCA-7S, ursodeoxycholic acid 7-sulfate]
44.0

* * *

Test system: bile acids secreted in bile
Assay: Biliary bile acid composition during i.v. infusion (GC-MS)
Type: in vivo, Sprague-Dawley rats
Conditions: 20-30 mins
Method: Adult male Sprague-Dawley rats (body weight 200-230 g) were anesthetized by an intraperitoneal injection of pentobarbital (Nembutal, 7.5 mg/100 g body weight), and maintained under sedation by additional doses. […] For the determination of hepatic biotransformation of the infused bile acid, bile collections from the six animal were pooled and biliary bile acids were determined by GC-MS after extraction, solvolysis, hydrolysis, and derivatization. […]
outcome measure: Relative % composition in bile: UDCA (%)
I only need the number, in %, no unit after it.

Report value only: Relative % composition in bile: UDCA, bile acids secreted in bile, C[C@H](CCC(=O)O)[C@H]1CC[C@H]2[C@@H]3[C@@H](OS(=O)(=O)O)C[C@@H]4C[C@H](O)CC[C@]4(C)[C@H]3CC[C@]12C [UDCA-7S, ursodeoxycholic acid 7-sulfate]
61.3

Report value only: Relative % composition in bile: UDCA, bile acids secreted in bile, C[C@H](CCC(=O)O)[C@H]1CC[C@H]2[C@@H]3[C@@H](O)C[C@@H]4C[C@H](O)CC[C@]4(C)[C@H]3CC[C@]12C [UDCA, reference compound]
51.9

Report value only: Relative % composition in bile: UDCA, bile acids secreted in bile, C[C@H](CCC(=O)O)[C@H]1CC[C@H]2[C@@H]3[C@@H](OS(=O)(=O)O)C[C@@H]4C[C@H](OS(=O)(=O)O)CC[C@]4(C)[C@H]3CC[C@]12C [UDCA-DS, ursodeoxycholic acid 3,7-disulfate]
54.6

Report value only: Relative % composition in bile: UDCA, bile acids secreted in bile, C[C@H](CCC(=O)O)[C@H]1CC[C@H]2[C@@H]3[C@@H](O)C[C@@H]4C[C@H](OS(=O)(=O)O)CC[C@]4(C)[C@H]3CC[C@]12C [UDCA-3S, ursodeoxycholic acid 3-sulfate]
33.3

* * *

System: Principal Bile Acids in Liver
Experiment: Bile acid composition of liver tissue after oral administration (GC-MS)
Format: in vivo, Sprague-Dawley rats
Conditions: oral gavage 250 mg/day, 4 days
outcome measure: Cholic acid concentration in liver (nmol/g)
I only need the number, in nmol/g, no unit after it.

Completed entries (count: 3):
compound	Cholic acid concentration in liver (nmol/g)
C[C@H](CCC(=O)O)[C@H]1CC[C@H]2[C@@H]3[C@@H](OS(=O)(=O)O)C[C@@H]4C[C@H](O)CC[C@]4(C)[C@H]3CC[C@]12C [UDCA-7S, ursodeoxycholic acid 7-sulfate]	186.1
C[C@H](CCC(=O)O)[C@H]1CC[C@H]2[C@@H]3[C@@H](OS(=O)(=O)O)C[C@@H]4C[C@H](OS(=O)(=O)O)CC[C@]4(C)[C@H]3CC[C@]12C [UDCA-DS, ursodeoxycholic acid 3,7-disulfate]	163.2
C[C@H](CCC(=O)O)[C@H]1CC[C@H]2[C@@H]3[C@@H](O)C[C@@H]4C[C@H](O)CC[C@]4(C)[C@H]3CC[C@]12C [UDCA, reference compound]	42.3

Report value only: Cholic acid concentration in liver, Principal Bile Acids in Liver, C[C@H](CCC(=O)O)[C@H]1CC[C@H]2[C@@H]3[C@@H](O)C[C@@H]4C[C@H](OS(=O)(=O)O)CC[C@]4(C)[C@H]3CC[C@]12C [UDCA-3S, ursodeoxycholic acid 3-sulfate]
86.6

* * *

Tested on: Principal Bile Acids in Jejunum
Test: Bile acid composition of jejunum after oral administration (GC-MS)
Assay type: in vivo, Sprague-Dawley rats
Details: oral gavage 250 mg/day, 4 days; mean ± SEM
Listed compounds paired with reported Δ^22-UDCA mass in jejunum

Completed entries (count: 3):
compound	Δ^22-UDCA mass in jejunum
C[C@H](CCC(=O)O)[C@H]1CC[C@H]2[C@@H]3[C@@H](OS(=O)(=O)O)C[C@@H]4C[C@H](OS(=O)(=O)O)CC[C@]4(C)[C@H]3CC[C@]12C [UDCA-DS, ursodeoxycholic acid 3,7-disulfate]	0.21 mg
C[C@H](CCC(=O)O)[C@H]1CC[C@H]2[C@@H]3[C@@H](O)C[C@@H]4C[C@H](O)CC[C@]4(C)[C@H]3CC[C@]12C [UDCA, reference compound]	4.00 mg
C[C@H](CCC(=O)O)[C@H]1CC[C@H]2[C@@H]3[C@@H](O)C[C@@H]4C[C@H](OS(=O)(=O)O)CC[C@]4(C)[C@H]3CC[C@]12C [UDCA-3S, ursodeoxycholic acid 3-sulfate]	2.04 mg

Turning to the following compound.
Respond only with Δ^22-UDCA mass in jejunum recorded for C[C@H](CCC(=O)O)[C@H]1CC[C@H]2[C@@H]3[C@@H](OS(=O)(=O)O)C[C@@H]4C[C@H](O)CC[C@]4(C)[C@H]3CC[C@]12C [UDCA-7S, ursodeoxycholic acid 7-sulfate]
0.70 mg

* * *

Test system: Principal Bile Acids in Liver
Test: Bile acid composition of liver tissue after oral administration (GC-MS)
Assay type: in vivo, Sprague-Dawley rats
Details: oral gavage 250 mg/day, 4 days
Listed compounds paired with reported Δ^22-UDCA concentration in liver

compound	readout value
C[C@H](CCC(=O)O)[C@H]1CC[C@H]2[C@@H]3[C@@H](O)C[C@@H]4C[C@H](OS(=O)(=O)O)CC[C@]4(C)[C@H]3CC[C@]12C [UDCA-3S, ursodeoxycholic acid 3-sulfate]	31.3 nmol/g

Respond only with Δ^22-UDCA concentration in liver recorded for C[C@H](CCC(=O)O)[C@H]1CC[C@H]2[C@@H]3[C@@H](OS(=O)(=O)O)C[C@@H]4C[C@H](OS(=O)(=O)O)CC[C@]4(C)[C@H]3CC[C@]12C [UDCA-DS, ursodeoxycholic acid 3,7-disulfate]
5.8 nmol/g

Respond only with Δ^22-UDCA concentration in liver recorded for C[C@H](CCC(=O)O)[C@H]1CC[C@H]2[C@@H]3[C@@H](OS(=O)(=O)O)C[C@@H]4C[C@H](O)CC[C@]4(C)[C@H]3CC[C@]12C [UDCA-7S, ursodeoxycholic acid 7-sulfate]
8.7 nmol/g

Respond only with Δ^22-UDCA concentration in liver recorded for C[C@H](CCC(=O)O)[C@H]1CC[C@H]2[C@@H]3[C@@H](O)C[C@@H]4C[C@H](O)CC[C@]4(C)[C@H]3CC[C@]12C [UDCA, reference compound]
37.4 nmol/g
